# System: MCF7
# TEST DESCRIPTION: Cytotoxicity against human MCF7 cells after 72 hrs by MTT assay
# Format: functional, cell-based
# RUN PARAMETERS: MCF7, 72 h
# IC50 annotations

COMPOUND	IC50 / µM
CC(=O)N[C@@H](C)C(=O)N[C@H]1[C@H](O[C@H]2CC[C@@]3(C)C(=CC[C@H]4[C@@H]5C[C@@H]6O[C@]7(CC[C@@H](C)CO7)[C@@H](C)[C@@H]6[C@@]5(C)CC[C@@H]43)C2)O[C@H](CO)[C@@H](O)[C@@H]1O	11
C[C@@H]1CC[C@@]2(OC1)O[C@H]1C[C@H]3[C@@H]4CC=C5C[C@@H](O[C@@H]6O[C@H](CO)[C@@H](O)[C@H](O)[C@H]6NC(=O)CCCCC6CCSS6)CC[C@]5(C)[C@H]4CC[C@]3(C)[C@H]1[C@@H]2C (stereo partly drawn) [ALPHA LIPOYL]	6.9
CC(=O)N[C@H]1[C@H](O[C@H]2CC[C@@]3(C)C(=CC[C@H]4[C@@H]5C[C@@H]6O[C@]7(CC[C@@H](C)CO7)[C@@H](C)[C@@H]6[C@@]5(C)CC[C@@H]43)C2)O[C@H](CO)[C@@H](O)[C@@H]1O	18.3
C[C@@H]1CC[C@@]2(OC1)O[C@H]1C[C@H]3[C@@H]4CC=C5C[C@@H](O[C@@H]6O[C@H](CO)[C@@H](O)[C@H](O)[C@H]6NC(=O)CCC(=O)O)CC[C@]5(C)[C@H]4CC[C@]3(C)[C@H]1[C@@H]2C	22

---

# Tested on: HeLa
# TEST DESCRIPTION: Cytotoxicity against human HeLa cells after 72 hrs by MTT assay
# Type: functional, cell-based
pIC50: −log10 of the molar value.
# pIC50 annotations
MEASURE NAME: pIC50

MOLECULE	MEASURE NAME	VAL
CC(=O)N[C@H]1[C@H](O[C@H]2CC[C@@]3(C)C(=CC[C@H]4[C@@H]5C[C@@H]6O[C@]7(CC[C@@H](C)CO7)[C@@H](C)[C@@H]6[C@@]5(C)CC[C@@H]43)C2)O[C@H](CO)[C@@H](O)[C@@H]1O	pIC50	4.67
CC(=O)N[C@@H](C)C(=O)N[C@H]1[C@H](O[C@H]2CC[C@@]3(C)C(=CC[C@H]4[C@@H]5C[C@@H]6O[C@]7(CC[C@@H](C)CO7)[C@@H](C)[C@@H]6[C@@]5(C)CC[C@@H]43)C2)O[C@H](CO)[C@@H](O)[C@@H]1O	pIC50	4.70
C[C@@H]1CC[C@@]2(OC1)O[C@H]1C[C@H]3[C@@H]4CC=C5C[C@@H](O[C@@H]6O[C@H](CO)[C@@H](O)[C@H](O)[C@H]6NC(=O)CCCCC6CCSS6)CC[C@]5(C)[C@H]4CC[C@]3(C)[C@H]1[C@@H]2C (some centres not stated)	pIC50	5.14
C[C@@H]1CC[C@@]2(OC1)O[C@H]1C[C@H]3[C@@H]4CC=C5C[C@@H](O[C@@H]6O[C@H](CO)[C@@H](O)[C@H](O)[C@H]6NC(=O)CCC(=O)O)CC[C@]5(C)[C@H]4CC[C@]3(C)[C@H]1[C@@H]2C	pIC50	4.86
C[C@@H]1CC[C@@]2(OC1)O[C@H]1C[C@H]3[C@@H]4CC=C5C[C@@H](O[C@@H]6O[C@H](CO)[C@@H](O)[C@H](O)[C@H]6NC(=O)c6ccccc6)CC[C@]5(C)[C@H]4CC[C@]3(C)[C@H]1[C@@H]2C	pIC50	4.74

---

# Tested on: MCF7
# TEST DESCRIPTION: Cytotoxicity against human MCF7 cells after 72 hrs by MTT assay
# Type: functional, cell-based
# RUN PARAMETERS: MCF7, 72 h
# IC50 annotations
MEASURE NAME: IC50 (µM)

1. C[C@@H]1CC[C@@]2(OC1)O[C@H]1C[C@H]3[C@@H]4CC=C5C[C@@H](O[C@@H]6O[C@H](CO)[C@@H](O)[C@H](O)[C@H]6NC(=O)c6ccccc6)CC[C@]5(C)[C@H]4CC[C@]3(C)[C@H]1[C@@H]2C 19.4
2. C[C@@H]1CC[C@@]2(OC1)O[C@H]1C[C@H]3[C@@H]4CC=C5C[C@@H](O[C@H]6O[C@@H](CO)[C@H](O)[C@@H](O)[C@@H]6NC(=O)CCCCC(=O)N[C@H]6[C@H](O[C@H]7CC[C@@]8(C)C(=CC[C@H]9[C@@H]%10C[C@@H]%11O[C@]%12(CC[C@@H](C)CO%12)[C@@H](C)[C@@H]%11[C@@]%10(C)CC[C@@H]98)C7)O[C@H](CO)[C@@H](O)[C@@H]6O)CC[C@]5(C)[C@H]4CC[C@]3(C)[C@H]1[C@@H]2C 19.2
3. C[C@@H]1CC[C@@]2(OC1)O[C@H]1C[C@H]3[C@@H]4CC=C5C[C@@H](O[C@@H]6O[C@H](CO)[C@@H](O)[C@H](O)[C@H]6NC(=O)CCCCC(=O)O)CC[C@]5(C)[C@H]4CC[C@]3(C)[C@H]1[C@@H]2C 11.3

---

# Tested on: SK-N-SH
# TEST DESCRIPTION: Cytotoxicity against human SK-N-SH cells after 72 hrs by MTT assay
# Assay type: functional, cell-based
# IC50 annotations
MEASURE NAME: IC50

MOLECULE	VAL
C[C@@H]1CC[C@@]2(OC1)O[C@H]1C[C@H]3[C@@H]4CC=C5C[C@@H](O[C@@H]6O[C@H](CO)[C@@H](O)[C@H](O)[C@H]6NC(=O)c6ccccc6)CC[C@]5(C)[C@H]4CC[C@]3(C)[C@H]1[C@@H]2C	14.9 µM
C[C@@H]1CC[C@@]2(OC1)O[C@H]1C[C@H]3[C@@H]4CC=C5C[C@@H](O[C@@H]6O[C@H](CO)[C@@H](O)[C@H](O)[C@H]6NC(=O)CCCCC6CCSS6)CC[C@]5(C)[C@H]4CC[C@]3(C)[C@H]1[C@@H]2C (stereo partly drawn) [ALPHA LIPOYL]	4.8 µM
CC(=O)N[C@@H](C)C(=O)N[C@H]1[C@H](O[C@H]2CC[C@@]3(C)C(=CC[C@H]4[C@@H]5C[C@@H]6O[C@]7(CC[C@@H](C)CO7)[C@@H](C)[C@@H]6[C@@]5(C)CC[C@@H]43)C2)O[C@H](CO)[C@@H](O)[C@@H]1O	15.3 µM
CC(=O)N[C@H]1[C@H](O[C@H]2CC[C@@]3(C)C(=CC[C@H]4[C@@H]5C[C@@H]6O[C@]7(CC[C@@H](C)CO7)[C@@H](C)[C@@H]6[C@@]5(C)CC[C@@H]43)C2)O[C@H](CO)[C@@H](O)[C@@H]1O	11.6 µM
C[C@@H]1CC[C@@]2(OC1)O[C@H]1C[C@H]3[C@@H]4CC=C5C[C@@H](O[C@@H]6O[C@H](CO)[C@@H](O)[C@H](O)[C@H]6NC(=O)CCCCC(=O)O)CC[C@]5(C)[C@H]4CC[C@]3(C)[C@H]1[C@@H]2C	16.3 µM
C[C@@H]1CC[C@@]2(OC1)O[C@H]1C[C@H]3[C@@H]4CC=C5C[C@@H](O[C@H]6O[C@@H](CO)[C@H](O)[C@@H](O)[C@@H]6NC(=O)CCCCC(=O)N[C@H]6[C@H](O[C@H]7CC[C@@]8(C)C(=CC[C@H]9[C@@H]%10C[C@@H]%11O[C@]%12(CC[C@@H](C)CO%12)[C@@H](C)[C@@H]%11[C@@]%10(C)CC[C@@H]98)C7)O[C@H](CO)[C@@H](O)[C@@H]6O)CC[C@]5(C)[C@H]4CC[C@]3(C)[C@H]1[C@@H]2C	19.5 µM
C[C@@H]1CC[C@@]2(OC1)O[C@H]1C[C@H]3[C@@H]4CC=C5C[C@@H](O[C@@H]6O[C@H](CO)[C@@H](O)[C@H](O)[C@H]6NC(=O)CCC(=O)O)CC[C@]5(C)[C@H]4CC[C@]3(C)[C@H]1[C@@H]2C	14.1 µM
